Biological target: PLK1 T210D (h) (Homo sapiens, UniProt P53350, T210D)
Sequence (P53350 whole entry T210D): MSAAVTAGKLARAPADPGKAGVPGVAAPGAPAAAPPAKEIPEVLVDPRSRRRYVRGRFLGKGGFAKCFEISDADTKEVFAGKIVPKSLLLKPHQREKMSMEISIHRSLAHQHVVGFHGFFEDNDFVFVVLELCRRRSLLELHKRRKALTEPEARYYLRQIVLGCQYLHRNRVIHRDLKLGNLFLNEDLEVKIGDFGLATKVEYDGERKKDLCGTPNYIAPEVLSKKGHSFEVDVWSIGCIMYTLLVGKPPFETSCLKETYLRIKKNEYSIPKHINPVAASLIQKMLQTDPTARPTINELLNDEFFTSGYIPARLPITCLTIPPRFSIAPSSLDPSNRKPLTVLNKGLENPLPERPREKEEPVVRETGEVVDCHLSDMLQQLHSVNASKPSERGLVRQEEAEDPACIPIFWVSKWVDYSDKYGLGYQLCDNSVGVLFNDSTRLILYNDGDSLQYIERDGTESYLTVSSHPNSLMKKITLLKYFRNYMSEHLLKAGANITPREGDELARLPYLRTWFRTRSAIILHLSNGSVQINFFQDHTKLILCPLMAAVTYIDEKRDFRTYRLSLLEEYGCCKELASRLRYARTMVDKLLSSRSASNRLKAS
Assay: PLK1 human kinase inhibition, SPA
Format: biochemical
Conditions: read-out: PLK1 pIC50 (converted)
Exercise: state measured IC50 for each of the compounds provided.

compound	measure_name	result
CN1CCNC(=O)CN2CCN(CC2)Cc2cccc(c2)Nc2nccc(n2)-c2ccc(cc2)C1 [Compound 134]	IC50	> 10 µM
O=C1CN2CCN(CC2)Cc2cc(ccc2N2CCOCC2)Nc2nccc(n2)-c2ccc(cc2)CNCCN1 [Compound 125]	IC50	> 10 µM

Would you mind telling me what IC50 value was observed for COc1cc2cc(c1)Nc1nccc(n1)-c1ccc(OC)c(c1)CN(C)CCNC(=O)[C@H](CO)NC2 [Compound 107] ?
> 10 µM

----------
Molecular target: PLK4 (h) (Homo sapiens)
Sequence (O00444 whole entry): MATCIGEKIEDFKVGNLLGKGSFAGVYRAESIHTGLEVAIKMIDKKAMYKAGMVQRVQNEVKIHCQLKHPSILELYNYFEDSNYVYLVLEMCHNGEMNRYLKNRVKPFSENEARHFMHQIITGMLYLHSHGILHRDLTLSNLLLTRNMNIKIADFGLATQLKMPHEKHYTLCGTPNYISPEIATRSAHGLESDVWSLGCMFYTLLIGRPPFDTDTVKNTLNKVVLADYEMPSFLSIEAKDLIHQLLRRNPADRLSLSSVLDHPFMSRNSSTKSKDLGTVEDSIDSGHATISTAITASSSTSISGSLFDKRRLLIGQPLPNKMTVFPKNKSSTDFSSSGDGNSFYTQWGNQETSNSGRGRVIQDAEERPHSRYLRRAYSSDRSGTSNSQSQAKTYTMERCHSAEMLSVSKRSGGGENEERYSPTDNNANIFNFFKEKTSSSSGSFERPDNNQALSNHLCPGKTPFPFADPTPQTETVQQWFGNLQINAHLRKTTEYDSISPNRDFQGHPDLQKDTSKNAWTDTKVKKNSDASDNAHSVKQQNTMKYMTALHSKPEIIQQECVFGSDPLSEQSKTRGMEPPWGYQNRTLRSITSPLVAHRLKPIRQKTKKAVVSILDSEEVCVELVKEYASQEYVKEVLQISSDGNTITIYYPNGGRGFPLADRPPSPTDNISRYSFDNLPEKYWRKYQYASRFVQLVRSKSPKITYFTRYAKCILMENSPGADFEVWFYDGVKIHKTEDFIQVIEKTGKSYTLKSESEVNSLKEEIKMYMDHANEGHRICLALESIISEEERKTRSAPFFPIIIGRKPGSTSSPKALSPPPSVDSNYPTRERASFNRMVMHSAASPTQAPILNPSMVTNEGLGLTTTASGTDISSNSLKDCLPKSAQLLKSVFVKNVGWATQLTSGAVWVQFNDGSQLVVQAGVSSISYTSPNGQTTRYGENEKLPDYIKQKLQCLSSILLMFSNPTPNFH
Test: PLK-4 human kinase inhibition, scintillation proximity assay (SPA)
Assay type: biochemical
Settings: read-out: PLK4 pIC50 (converted)
Can you tell me log10 IC50 for the items I'm about to list?
Parameter value (number): base-10 log of IC50 in nM.

Before answering, review these 5 worked examples.
compound	target_or_system	number
CC(C)Nc1cc2cc(c1)Nc1nccc(n1)-c1ccc(cc1)CN(C)CCCNC(=O)[C@@H]1CCCN1C2 [Compound 151]	PLK4 (h) (Homo sapiens)	2.81
COc1ccc2cc1CN(C)CCCNC(=O)[C@H](CO)NCc1cccc(c1)Nc1nccc-2n1 [Compound 118]	PLK4 (h) (Homo sapiens)	3.51
O=C1CN2CCN(CC2)Cc2cccc(c2)Nc2nccc(n2)-c2ccnc(c2)CCCN1 [Compound 21]	PLK4 (h) (Homo sapiens)	3.63
O=C1NCc2cccc(c2)-c2ccnc(n2)Nc2ccc(N3CCOCC3)c(c2)CN2C[C@@H](O)C[C@@H]12 [Compound 27]	PLK4 (h) (Homo sapiens)	2.04
COc1cc2cc(c1)Nc1nccc(n1)-c1ccc(cc1)CN(C)CCCNC(=O)C1CCN(CC1)C2 [Compound 66]	PLK4 (h) (Homo sapiens)	3.13

Now turn to the next compound.
# log10 IC50 lookup, item O=C1NCCNc2cc(ccn2)-c2ccnc(n2)Nc2ccc(N3CCOCC3)c(c2)CN2CCCC12 (stereo not shown) [Compound 161]
3.20

----------
Kindly supply the reported IC50 values for the records listed here.
Target: PLK2 (h) (Homo sapiens, UniProt Q9NYY3)
Sequence (Q9NYY3 whole entry): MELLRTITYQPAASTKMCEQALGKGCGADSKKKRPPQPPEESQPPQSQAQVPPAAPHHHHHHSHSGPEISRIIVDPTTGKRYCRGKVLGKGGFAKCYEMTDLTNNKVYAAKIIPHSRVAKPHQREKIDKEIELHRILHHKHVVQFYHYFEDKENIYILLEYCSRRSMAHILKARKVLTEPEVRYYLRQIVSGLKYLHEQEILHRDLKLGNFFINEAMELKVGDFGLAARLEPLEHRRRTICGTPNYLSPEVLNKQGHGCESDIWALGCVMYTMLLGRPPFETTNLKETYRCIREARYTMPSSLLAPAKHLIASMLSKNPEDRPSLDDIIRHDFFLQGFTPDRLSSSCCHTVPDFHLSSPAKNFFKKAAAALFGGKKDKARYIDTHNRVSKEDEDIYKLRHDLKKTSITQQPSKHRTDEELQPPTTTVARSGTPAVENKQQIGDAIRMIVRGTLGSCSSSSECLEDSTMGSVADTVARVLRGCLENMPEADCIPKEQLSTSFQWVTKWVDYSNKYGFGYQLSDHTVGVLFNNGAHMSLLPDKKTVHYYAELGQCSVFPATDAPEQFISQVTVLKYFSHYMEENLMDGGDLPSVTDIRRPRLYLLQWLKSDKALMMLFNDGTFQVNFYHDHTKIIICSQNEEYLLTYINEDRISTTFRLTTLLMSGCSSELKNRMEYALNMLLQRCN
Test: PLK2 human kinase inhibition, SPA
Type: biochemical
Details: read-out: PLK2 pIC50 (converted)

For orientation, consider the following solved cases.
molecule	IC50
COc1cc2cc(c1)Nc1nccc(n1)-c1ccc(OC)c(c1)CN(C)CCCNC(=O)[C@@H]1CCCN1C2 [Compound 171]	> 10 µM
COc1ccc2cc1CN(C)CCNC(=O)CN1CCN(CC1)Cc1cccc(c1)Nc1nccc-2n1 [Compound 147]	> 10 µM
O=C1NCCCc2cc(ccn2)-c2ccnc(n2)Nc2ccc(N3CCOCC3)c(c2)CN2CCCC12 (stereo not shown) [Compound 48]	> 10 µM

Next:
Given the molecule CN1CCNC(=O)[C@@H]2CCCN2Cc2cc(Br)cc(c2)Nc2nccc(n2)-c2ccc(cc2)C1 [Compound 155] , what is its reported IC50?
> 10 µM

----------
Target: CDK1/CyclinB (h) (Homo sapiens, UniProt P06493)
Sequence (P06493 whole entry): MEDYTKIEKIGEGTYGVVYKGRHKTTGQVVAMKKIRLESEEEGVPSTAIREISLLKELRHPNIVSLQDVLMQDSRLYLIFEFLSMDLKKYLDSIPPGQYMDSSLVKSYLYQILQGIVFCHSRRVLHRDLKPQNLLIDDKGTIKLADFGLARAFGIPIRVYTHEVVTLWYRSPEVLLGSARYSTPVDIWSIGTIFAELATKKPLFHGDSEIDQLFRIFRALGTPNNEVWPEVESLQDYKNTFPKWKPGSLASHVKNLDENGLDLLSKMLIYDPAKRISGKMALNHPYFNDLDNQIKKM
Sequence (P14635 whole entry partner): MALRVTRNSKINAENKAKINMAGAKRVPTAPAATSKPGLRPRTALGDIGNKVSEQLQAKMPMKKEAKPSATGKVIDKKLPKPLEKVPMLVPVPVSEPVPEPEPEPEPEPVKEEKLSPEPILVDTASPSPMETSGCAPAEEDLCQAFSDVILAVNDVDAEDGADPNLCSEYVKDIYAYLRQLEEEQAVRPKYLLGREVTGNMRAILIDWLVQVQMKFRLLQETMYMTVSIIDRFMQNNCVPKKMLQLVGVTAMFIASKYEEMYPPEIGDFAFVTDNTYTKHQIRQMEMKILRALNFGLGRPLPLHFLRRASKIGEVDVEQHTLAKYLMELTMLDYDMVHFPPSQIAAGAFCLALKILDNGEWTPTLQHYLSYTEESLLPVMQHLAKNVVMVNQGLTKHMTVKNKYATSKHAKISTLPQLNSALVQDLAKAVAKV
Experiment: CDK1/CyclinB human kinase inhibition, Invitrogen's FRET assay (Z'lyte)
Type: biochemical
Settings: read-out: CDK1 pIC50 (converted)
Method: The in vitro inhibition of a panel of kinases was assessed using either the scintillation proximity assay (SPA) as described by Cook, N. D. et al., Advances in Experimental Medicine and Biology (1991), 36; p. 525-528. All kinases are pre-diluted to a 10× working concentration prior to addition into the assay. The composition of the dilution buffer for each kinase is detailed below. […]
measure_name: IC50

compound	target_or_system	result
CN(C)CCNCc1cc2cc(c1)Nc1nccc(n1)-c1cccc(c1)CNC(=O)[C@@H]1CCCN1C2	CDK1/CyclinB (h) (Homo sapiens, UniProt P06493)	0.933 µM
COc1ccc2cc1CN(C)CCNC(=O)[C@H](CO)NCc1cc(cc(N3CCOCC3)c1)Nc1nccc-2n1	CDK1/CyclinB (h) (Homo sapiens, UniProt P06493)	> 10 µM
O=C1CN2CCN(CC2)Cc2cccc(c2)Nc2nccc(n2)-c2ccnc(c2)CCCN1	CDK1/CyclinB (h) (Homo sapiens, UniProt P06493)	0.105 µM

Would you mind listing IC50 for each of the following compounds?
1. CN1CCNC(=O)CN2CCN(CC2)Cc2cccc(c2)Nc2nccc(n2)-c2ccc(cc2)C1
2. CC(C)Nc1cc2cc(c1)Nc1nccc(n1)-c1ccc(cc1)CN(C)CCCNC(=O)[C@@H]1CCCN1C2
3. COc1ccc2cc1CN(C)CCNC(=O)[C@@H]1CCCN1Cc1cc(NCCc3ccccc3)cc(c1)Nc1nccc-2n1
4. O=C1NCc2cc(ccc2N2CCOCC2)Nc2nccc(n2)-c2cccc(c2)CN2CCC[C@@H]12
5. COc1cc2cc(c1)Nc1nccc(n1)-c1ccc(cc1)CN(C)CCCNC(=O)CN1CCN(CC1)C2
6. COc1ccc2cc1CN(C)CCNC(=O)CN1CCN(CC1)Cc1cc(cc(NC(C)C)c1)Nc1nccc-2n1

4.79 µM
> 10 µM
> 10 µM
> 10 µM
> 10 µM
8.51 µM

# return IC50 for each item in the list
1. O=C1NCCCOc2ccc(cc2)-c2ccnc(n2)Nc2ccc(N3CCOCC3)c(c2)CN2CCC[C@@H]12
2. CC(C)Nc1cc2cc(c1)Nc1nccc(n1)-c1ccc(cc1)CN(C)CCNC(=O)C1CCN(CC1)C2
3. COc1ccc2cc1CNCCNC(=O)[C@@H]1C[C@@H](O)CN1Cc1cc(ccc1N1CCOCC1)Nc1nccc-2n1
4. COc1cc2cc(c1)Nc1nccc(n1)-c1ccc(OC)c(c1)CN(C)CCNC(=O)C1CCN(CC1)C2
5. COc1ccc2cc1CNCCNC(=O)CN1CCN(CC1)Cc1cc(ccc1N1CCOCC1)Nc1nccc-2n1

1. 3.47 µM
2. > 10 µM
3. > 10 µM
4. > 10 µM
5. > 10 µM

For the 3 compounds below, give their IC50 values.
1. COc1ccc2cc1CN(C)CCNC(=O)[C@@H]1CCCN1Cc1cc(cc(NC(C)C)c1)Nc1nccc-2n1
2. CN1CCC(NC(=O)c2cc3cc(c2)Nc2nccc(n2)-c2cccc(c2)CNC(=O)[C@@H]2CCCN2C3)CC1
3. CN1CCN(C(=O)c2cc3cc(c2)Nc2nccc(n2)-c2cccc(c2)CNC(=O)[C@@H]2CCCN2C3)CC1

["> 10 µM", "1.66 µM", "1.23 µM"]

Give one value of IC50 per listed compound.
1. CN1CCNC(=O)CN2CCN(CC2)Cc2cc(cc(N3CCOCC3)c2)Nc2nccc(n2)-c2ccc(cc2)C1
2. CN1CCN(C(=O)c2ccc3cc2CN2CCC[C@H]2C(=O)NCc2cccc(c2)-c2ccnc(n2)N3)CC1
3. O=C1NCc2cccc(c2)-c2ccnc(n2)Nc2cc(cc(C(=O)N3CCOCC3)c2)CN2CCC[C@@H]12
4. COc1ccc2cc1CN(C)CCNC(=O)[C@H](CO)NCc1cccc(c1)Nc1nccc-2n1
5. COc1cc2cc(c1)Nc1nccc(n1)-c1ccc(OC)c(c1)CN(C)CCNC(=O)[C@@H]1CCCN1C2
6. O=C1NCCNCc2ccc(cc2)-c2ccnc(n2)Nc2ccc(N3CCOCC3)c(c2)CN[C@H]1CO
7. CC(C)Nc1cc2cc(c1)Nc1nccc(n1)-c1ccc(cc1)CN(C)CCCNC(=O)CN1CCN(CC1)C2
8. COc1ccc2cc1CN(C)CCCNC(=O)[C@@H]1CCCN1Cc1cccc(c1)Nc1nccc-2n1

> 10 µM
> 10 µM
0.55 µM
> 10 µM
> 10 µM
> 10 µM
> 10 µM
> 10 µM

For each of the compounds below, note its IC50.
1. COc1ccc2cc1CN(C)CCCNC(=O)CN1CCN(CC1)Cc1cc(Br)cc(c1)Nc1nccc-2n1
2. COc1ccc2cc1CN(C)CCNC(=O)[C@H](C)NCc1cc(ccc1N1CCOCC1)Nc1nccc-2n1
3. O=C1NCCNc2cc(ccn2)-c2ccnc(n2)Nc2ccc(N3CCOCC3)c(c2)CN2CCCC12 (centres unmarked)
4. O=C1NCc2cccc(c2)-c2ccnc(n2)Nc2ccc(N3CCOCC3)c(c2)CN[C@H]1Cc1ccccc1

> 10 µM
> 10 µM
5.13 µM
> 10 µM

----------
Test system: HCT-116
Assay: Cellular proliferation assay (Alamar blue), HCT-116
Format: cell-based
Conditions: Homo sapiens, 10% FCS, 72 hours with compound, Alamar blue 4 h
Give measured IC50 for each item. Keep answers brief.

Here are 5 compounds together with their reported answers.
structure_smiles	target_or_system	IC50
O=C1NCCNc2cc(ccn2)-c2ccnc(n2)Nc2ccc(N3CCOCC3)c(c2)CN2CCC1CC2	HCT-116	> 10 µM
O=C1NCCCOc2cccc(c2)-c2ccnc(n2)Nc2ccc(N3CCOCC3)c(c2)CN2C[C@H](O)C[C@@H]12	HCT-116	6.92 µM
O=C1NCc2cccc(c2)-c2ccnc(n2)Nc2ccc(N3CCOCC3)c(c2)CN2C[C@@H](O)C[C@@H]12	HCT-116	0.891 µM
CN1CCNC(=O)[C@@H]2CCCN2Cc2cccc(c2)Nc2nccc(n2)-c2ccc(cc2)C1	HCT-116	> 10 µM
COc1ccc2cc1CN(C)CCNC(=O)C1CCN(CC1)Cc1cc(Br)cc(c1)Nc1nccc-2n1	HCT-116	> 10 µM

Could you report IC50 for every entry in the following list?
1. CN1CCNC(=O)[C@@H]2CCCN2Cc2cc(Br)cc(c2)Nc2nccc(n2)-c2ccc(cc2)C1
2. COc1ccc2cc1CN(C)CCCNC(=O)[C@@H]1CCCN1Cc1cc(cc(N3CCOCC3)c1)Nc1nccc-2n1
3. O=C1NCCCc2cc(ccn2)-c2ccnc(n2)Nc2cccc(c2)CN[C@H]1CO
4. COc1ccc2cc1CN1CCC(CC1)C(=O)N(C)CCCN(C)c1ccc(cn1)-c1ccnc(n1)N2
5. O=C1NCCNCc2ccc(cc2)-c2ccnc(n2)Nc2ccc(N3CCOCC3)c(c2)CN[C@H]1Cc1ccccc1
6. COc1cc2cc(c1)Nc1nccc(n1)-c1ccc(OC)c(c1)CN(C)CCNC(=O)[C@@H]1CCCN1C2

1. > 10 µM
2. > 10 µM
3. 0.724 µM
4. 4.79 µM
5. 4.27 µM
6. > 10 µM

Each compound below has a recorded value; state its IC50.
1. C[C@@H]1NCc2cc(ccc2N2CCOCC2)Nc2nccc(n2)-c2cccc(c2)CNC1=O
2. COc1ccc2cc1CN(C)CCCNC(=O)[C@@H]1CCCN1Cc1cc(NCCc3ccccc3)cc(c1)Nc1nccc-2n1
3. COc1ccc2cc1CN(C)CCNC(=O)[C@H](CO)NCc1cc(cc(N3CCOCC3)c1)Nc1nccc-2n1
4. O=C1NCc2cc(ccc2N2CCOCC2)Nc2nccc(n2)-c2cccc(c2)CN2CCC[C@@H]12
5. CN1CCCNC(=O)[C@H](CO)NCc2cc(Br)cc(c2)Nc2nccc(n2)-c2ccc(cc2)C1
6. CN1CCCNC(=O)CN2CCN(CC2)Cc2cccc(c2)Nc2nccc(n2)-c2ccc(cc2)C1

1. > 10 µM
2. 2.24 µM
3. > 10 µM
4. 8.32 µM
5. > 10 µM
6. > 10 µM
